test system: OVCAR-3; experiment: Cytotoxicity against human OVCAR-3 cells after 72 hrs by Cell Titer-Blue cell viability assay; format: functional, cell-based; conditions: OVCAR-3, 72 h
METRIC: pIC50
API: returns pIC50 as number; meaning -log10 of concentration in mol/L.

Before answering, review these 5 worked examples.
Per the record, `COC1=CC(=O)c2c(cc(OC)c(C)c2O)C1=O` has pIC50 of 5.02

Per the record, COC1=CC(=O)c2c(cc(OC)c(C(C)OC(C)=O)c2O)C1=O (racemic) has pIC50 of 6.05

Per the record, COC1=CC(=O)c2c(cc(OC)c(C(C)C3=C(O)C(=O)c4cc(O)c(C(C)=O)c(O)c4C3=O)c2O)C1=O (racemic) has pIC50 of 5.18

Per the record, `CCc1c(OC)cc2c(c1O)C(=O)C=C(OC)C2=O` has pIC50 of 5.14

Per the record, `CC(=O)O[C@H]1C(=O)[C@@]2(C)[C@H]([C@H](OC(=O)c3ccccc3)[C@]3(O)C[C@H](OC(=O)[C@H](O)[C@@H](NC(=O)c4ccccc4)c4ccccc4)C(C)=C1C3(C)C)[C@]1(OC(C)=O)CO[C@@H]1C[C@@H]2O` has pIC50 of 8.29

Please examine the following record next.
Per the record, CCc1c(OC)cc2c(c1O)C(=O)C(C(C)c1c(OC)cc3c(c1O)C(=O)C=C(OC)C3=O)=C(O)C2=O (racemic) has pIC50 of 4.74
